# EXPERIMENT_NOTES: CRL1545 cell growth, single agent and combined, cisplatin and BGB IC20 combos (AID 1671464);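 note: cells exposed to compound for 96 hours before readout; 0% = vehicle DMSO and 100% = high DMSO killing control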
# STUDY_CONDITIONS: CRL1545 osteosarcoma cells, measured here: with cisplatin IC20 combination, at 0.5 µM, stronger effect = higher value
MEASURE_NAME: inhibition (%)
Express your answer in %, writing the number without its unit.

Given Cc1cc(C=CC#N)cc(C)c1Nc1ccnc(Nc2ccc(C#N)cc2)n1 , state its recorded inhibition. -15.2

---

# EXPERIMENT_NOTES: drug combination growth inhibition, ovarian cancer – cell-based, oncology-focused library, rucaparib conditional, profiling panel (AID 1508598)
# STUDY_CONDITIONS: patient-derived ovarian cancer cells, CellTiter-Glo viability, 144 h; at 0.00488 µM; OCI-P5x cells; with rucaparib 20 µM; stronger effect = lower value; 100% = cells with rucaparib alone
Entries and their viability values follow.
Express your answer in %, writing the number without its unit.

Consider the reported viability for these compounds:
> print(dat)
                               given.smiles  experimental.value
1  CC1(C)O[C@@H]2C[C@H]3[C@@H]4CCC5=CC(=O)C=C[C@]5(C)[C@]4(F)[C@H](O)C[C@]3(C)[C@@]2(C(=O)CO)O1                96.8
2  COC1=C2C[C@H](C)C[C@@H](OC)[C@H](O)[C@H](C)/C=C(\C)[C@H](OC(N)=O)[C@@H](OC)/C=C/C=C(\C)C(=O)NC(=CC1=O)C2=O                14.8
3  O=C1[C@H](CC[C@H](O)c2ccc(F)cc2)[C@H](c2ccc(O)cc2)N1c1ccc(F)cc1                 101
4  Cc1cc(NC(=O)c2cccc(NC(=O)/C=C/CN(C)C)c2)ccc1Nc1nccc(-c2cccnc2)n1                 108
5  CC(=O)O[C@@]1(C(C)=O)CC[C@H]2[C@@H]3C[C@H](C)C4=CC(=O)CC[C@]4(C)[C@@H]3CC[C@@]21C                 103

Given C=C1/C(=C/C=C2\CCC[C@@]3(C)[C@H]2CC[C@H]3[C@H](C)/C=C/[C@@H](C)C(C)C)C[C@H](O)C[C@@H]1O , state its recorded viability. 105

Given COc1ccccc1-c1cc(Nc2cccc(CS(N)(=O)=O)c2)ncn1 , state its recorded viability. 103
